testMethodNotes: soluble on expression in E. coli; label from the status in PepcDB or PDB records

{"columns": ["residues", "soluble on expression in E. coli"],
 "data": [
  ["MESTVTTQEEKLAYQQSVEMASNYANQFDADMKANLAIARTISTTMESYETADRDEALLILENLLRDNPHLLGTYVAFEPDAFDGKDAEYTNSPAHDGTGRFVPYWNKMNGTASVAPLLHYDSSDYYQLPKATEKDVLTEPYFYEGVFMVSYVSPIMKEGEFAGIGGVDVSLEYVDEVVSKVRTFDTGYAFMVSNSGVILSHPTHKDWIGKKDLYDFGGEELEKASRDIKNGIGGHLETADPTTGKTVILFYEPVETGDFAFVLVVPKEEMLAGVADLRERLLEHHHHHH", "soluble"],
  ["MRIEKVDTFPLFHKLSSPYGDANGLKSYRTSYLIRITTASGLTGWGECADWLPALDAGFKKRIIPYLIGKEASNRTELITVIKKWHQRAASAVSMALTDITAKKAGLSVCELWGGKLREQIPVYASFQSYSDRPDWSRHSLRLIEKAVRAGFKAVKLKAGGKMFSEDLAHIQAFQEMTGQSTGLILDANQSYDQAAARKWETWFSGWQNVLWFEEPMPFDDLAEYRMLRSALSVPVAGGENVKGAKPFLPIFLENAVDIAQPDVMHCEGTDEFQTVLKLARHFGKRVSPHSYDGGLSRIYAAFGQACLPHWTKMDGEDIEPLEWDAMENPFAQIVPVSIKDGCIQVPDKIEIDTELVEAYVWDGSSYI", "soluble"]
]}

----------
testMethodNotes: soluble on expression in E. coli; label from the status in PepcDB or PDB records
assayReadout: soluble on expression in E. coli

{"columns": ["residues", "soluble on expression in E. coli"],
 "data": [
  ["MGHHHHHHSHEKMNGSHRDQGSSALSGVGGIRLPNGKLKCDICGIICIGPNVLMVHKRSHTGERPFQCNQCGASFTQKGNLLRHIKLHSGEKPFKCHLCNYACRRRDALTGHLRTHSVGKPHKCGYCGRSYKQRSSLEEHKERCHNYLESMGLPGTLYPVIKEETNHSEMAEDLCKIGSERSLVLDRLASNVAKRKSSMP", "soluble"],
  ["GMREEKIREALNAHWQASAAGDFDAEHDIYDDDAICDYPQSGERILGRMNLQALRSHHPGKPAGFEVRRIQGEGNLWITEYSISYNGRPAYTVSIMEFRNGKVVHETQYFSDPFEAPGWRSQWVQQIG", "soluble"],
  ["MATLIYVDKENGEPGTRVVAKDGLKLGSGPSIKALDGRSQVSTPRFGKTFDAPPALPKATRKALGTVNRATEKSVKTKGPLKQKQPSFSAKKMTEKTVKAKSSVPASDDAYPEIEKFFPFNPLDFESFDLPEEHQIAHLPLSGVPLMILDEERELEKLFQLGPPSPVKMPSPPWESNLLQSPSSILSTLDVELPPVCCDIDILEHHHHHH", "not soluble"],
  ["MISLPAGSRIWLVAGITDMRNGFNGLASKVQNVLKDDPFSGHLFIFRGRRGDQIKVLWADSDGLCLFTKRLERGRFVWPVTRDGKVHLTPAQLSMLLEGINWKHPKRTERAGIRI", "not soluble"],
  ["MSVWASRLKAMGLLENLLNRYTPRTSGTPVFAVIDTGTTGFNKRYDHIIELAAVRADAYFKPVDSWHALLNPDTNAVSTTRGTPPPTSALNPAVGVTRSEAS", "not soluble"]
]}

Exam item: Need soluble on expression in E. coli of MDLSTGVPVSIQLKTIVQQGNEQKDFFFDLEGQLVKMGDTLYIRYKEELLEDTEPTPVTIKIEPDGHVQLIRAGELRMRLRFGYQEKLDTSYRTPYGLLQISTFTHNLRVSLKDQPMSGKILVDYDLYSQTERIGEYHLELEFTA , thanks.
Marked response: not soluble

Exam item: Need soluble on expression in E. coli of MGSDKIHHHHHHMNINFENHGGNIEKEARQLGLSTENIIDASASIVPFKLPKKLNNYLINSIKNRSIRSYPDSSYFEVRNAISKWHNIEPSMILPGNGASELFTWAARDASLNGISSLPSPGFGDYQRALKCWNATYVHNPLPLSWTNNNPQSFPIEPKANVLWITNPHNPTGQLWSRSSIENLLANYKLVICDEAFISLVPGGESQSIIDLTNIYKNLIVIRSLTKFLGIAGLRVGYAVTNSDRLLKWKEIRDPWPVNTLAINATKMIMKDSKMHKKRLNKIHRWVEKEGKWLYQSLSSFSTIKPLPSTTNFQLIKSESSILNLLENLKKRGILLRDCRSFINLDEKWFRISLLKREQNIQIINTLKDYIN , thanks.
Marked response: not soluble

Exam item: Need soluble on expression in E. coli of MFDIILEIVILLFNLLIQNLISLIKYALPYSLLPKKDLYRKKVLITGAGNGLGKLLAQKFAARGATLILWDINLQSVDELKNEIRGNQGEAHSYEVNLCDPGKIAQVGQQVINDIGKVDILVNNAGIATAKMILDSSENEINRSFDVNVKAHFYTVQQFLPAMLKDNNGHIVTIASAAGKMGSSGLADYSSTKHAAVGFHDSLVAEIMESEKNGVKTTLVCPYYVHTSMFDATGAATRFPWIFPILDTDYVVQKIFEAIETEQEFLVTPRAFYLVFAGIQILPYKAQAMVAQFFGLVQNLERFHK , thanks.
Marked response: not soluble

Exam item: Need soluble on expression in E. coli of MSLRPTEYIDLHCHLLPGLDDGPQQLAQAVEMARQAVADGIHYVLATPHHLDRRYQNTGLVVERSVAELQAELKRQQIPLTVFAGQEVHLRDDLATALPHLLGIDVGRRYLLLELPHEQVPNYVAQVIFELLQQGTTPVIAHPERNAQIMAQPERLYDLVQQGCLAQLTAGSLVGQFGRAVKSTALELVECGLVQVIASDAHLMARRGFMMRAGYQALARLDSTNPASFAVNARLLLNGDPVVLGEVLRPNQRRKFWLFEGHHHHHH , thanks.
Marked response: not soluble

Exam item: Need soluble on expression in E. coli of MRPLSLKGHERALTRVRFNREGDLTFSCAKDKKPCVWYTENGERIGSYDGHNGAVWDIDVSWDTTKCVTASGDLTVKIWDAELGNCLYTINHQTPMKSCGFSYSGNLVCFTTQKMTKNLSTFQVRDLRDSSQMVEGGESFFYSQFDVNATTALFTQMDDLVTIGFESGLLQQYDLRNPDTPIHTNESVHRYSVQDLQLSPRGDFLISASRDKTAALLDVNDLKKLKQYKSERPVNSACISPNRDHICLGGGEDAMQVTQTSVSAGHFEAKIYHMVFEEEFARFKGHFGPINTMAWHPSGTIIATGGEDGYIRIQEFDEDYLGFTYDF , thanks.
Marked response: not soluble

Exam item: Need soluble on expression in E. coli of SALSSAASLLGSPLTNDFAVISMSDLLTPLDTIMKRVEAFAKADIVTVIYNPRGSRFPDNIRKAVDIFLRYRNPETAVGIVRNAYRERQSVTITTLSNLNIEDIDMLTTVIIGNSETF , thanks.
Marked response: not soluble

Exam item: Need soluble on expression in E. coli of MLSFRNWWAREDSNPRPPGYEPGALPTELRAHTAIRLYSNKTPLSRSVISMKKDPIKEMLVKYPRILVIKAALKILKDGNKIDRERIEKTIVKIMTKKEG , thanks.
Marked response: not soluble

Exam item: Need soluble on expression in E. coli of MNVRNGKASTLRTNDVEPIKDSFSILIIGVDTSTTRASNGNPRSDSLILATFNVKDARVEMTSIPRDSYVHIEDSAKEINKYTKINAAHAYGGPELTMKTVEEEFKIPIDYYVRFDFDAFLKIIDALDGIDVDVPVNFTEQDSKDNQNAITLKKGPQHLNAEQALALARTRHIDSDIERGKRQQLIIKSIVSEATSVSSVSKYSDIIEVVGDNMKTNLTFNQMLSIAKFGMSNKIDIKSLNLKGDSNPMNGIYYYKLNESSVQSISNEFASELGIKQPFPGAAAYSDESSTASNLEHHHHHH , thanks.
Marked response: soluble

Exam item: Need soluble on expression in E. coli of MNETTNEQEVLLLRRKLDLLLRTGKLLMESAADTNRIERNMKRVAAYLGIPEEKLHIDIRWTMLMVNVSDEKHSFSKFQKCEKHGINMEAISKISKLSWRAIEQDYSLDKYEEELEKIARQERNYTPYVVAICTGFACGGFCK , thanks.
Marked response: not soluble
